experimentDescription: Pharmacokinetic tests in male SD rats
Format: in vivo
conditionSummary: rat, in vivo, oral gavage (po), 10 mg/kg, plasma
quantity: MRT last (h)
Answers are plain numbers, in h.

Please look up its MRT last: CCc1cc(Nc2ncc(Br)c(Nc3ccccc3P(C)(C)=O)n2)c(OC)cc1N1CCN(C(=O)Cn2nc(C)c(-c3cc4c(cc3F)c(N3CCC(=O)NC3=O)nn4C)c2C)CC1 4.23

====

experimentDescription: Pharmacokinetic tests in male SD rats
Assay type: in vivo
conditionSummary: oral gavage (po), 10 mg/kg, plasma
Hi there, I'd appreciate the recorded HL for every entry that follows.
Give bare numbers, in h.

Example entries and their recorded answers appear below.
COc1cc(N2CCC(CN3CCN(c4ccc5c(c4)C(=O)N(C4CCC(=O)NC4=O)C5=O)CC3)CC2)c(-c2cnn(C)c2)cc1Nc1ncc(Br)c(Nc2ccc(C3CC3)cc2P(C)(C)=O)n1 (centres unmarked) [DZL-1, reference compound]; 3.08
CCc1cc(Nc2ncc(Cl)c(Nc3ccccc3P(C)(C)=O)n2)c(OC)cc1N1CC2(CCN(C(=O)CN3CCC(c4cc5c(cc4F)c(N4CCC(=O)NC4=O)nn5C)CC3)CC2)C1; 3.43
CCc1cc(Nc2ncc(Cl)c(Nc3ccccc3P(C)(C)=O)n2)c(OC)cc1N1CCN(CCN2CCC(c3cc4c(cc3F)c(N3CCC(=O)NC3=O)nn4C)C(F)(F)C2)CC1 (centres unmarked); 7.86

For every record below, what is its HL?
1. CCc1cc(Nc2ncc(Cl)c(Nc3ccccc3C(=O)NC)n2)c(OC)cc1N1CCN(C(=O)CN2CCC(c3cc4c(cc3F)c(N3CCC(=O)NC3=O)nn4C)C(F)(F)C2)CC1 (centres unmarked)
2. CCc1cc(Nc2ncc(Br)c(Nc3ccccc3P(C)(C)=O)n2)c(OC)cc1N1CCN(C(=O)Cn2nc(C)c(-c3cc4c(cc3F)c(N3CCC(=O)NC3=O)nn4C)c2C)CC1

[3.22, 3.21]

====

Hi there, I'd appreciate the recorded DC50 for every entry that follows.
testSystem: EGFR in Baf3-19del-T790M-C797S (Homo sapiens, UniProt P00533, C797S/DEL746-750/T790M)
Sequence (P00533 with tags, fused parts or gaps DEL746-750/T790M/C797S): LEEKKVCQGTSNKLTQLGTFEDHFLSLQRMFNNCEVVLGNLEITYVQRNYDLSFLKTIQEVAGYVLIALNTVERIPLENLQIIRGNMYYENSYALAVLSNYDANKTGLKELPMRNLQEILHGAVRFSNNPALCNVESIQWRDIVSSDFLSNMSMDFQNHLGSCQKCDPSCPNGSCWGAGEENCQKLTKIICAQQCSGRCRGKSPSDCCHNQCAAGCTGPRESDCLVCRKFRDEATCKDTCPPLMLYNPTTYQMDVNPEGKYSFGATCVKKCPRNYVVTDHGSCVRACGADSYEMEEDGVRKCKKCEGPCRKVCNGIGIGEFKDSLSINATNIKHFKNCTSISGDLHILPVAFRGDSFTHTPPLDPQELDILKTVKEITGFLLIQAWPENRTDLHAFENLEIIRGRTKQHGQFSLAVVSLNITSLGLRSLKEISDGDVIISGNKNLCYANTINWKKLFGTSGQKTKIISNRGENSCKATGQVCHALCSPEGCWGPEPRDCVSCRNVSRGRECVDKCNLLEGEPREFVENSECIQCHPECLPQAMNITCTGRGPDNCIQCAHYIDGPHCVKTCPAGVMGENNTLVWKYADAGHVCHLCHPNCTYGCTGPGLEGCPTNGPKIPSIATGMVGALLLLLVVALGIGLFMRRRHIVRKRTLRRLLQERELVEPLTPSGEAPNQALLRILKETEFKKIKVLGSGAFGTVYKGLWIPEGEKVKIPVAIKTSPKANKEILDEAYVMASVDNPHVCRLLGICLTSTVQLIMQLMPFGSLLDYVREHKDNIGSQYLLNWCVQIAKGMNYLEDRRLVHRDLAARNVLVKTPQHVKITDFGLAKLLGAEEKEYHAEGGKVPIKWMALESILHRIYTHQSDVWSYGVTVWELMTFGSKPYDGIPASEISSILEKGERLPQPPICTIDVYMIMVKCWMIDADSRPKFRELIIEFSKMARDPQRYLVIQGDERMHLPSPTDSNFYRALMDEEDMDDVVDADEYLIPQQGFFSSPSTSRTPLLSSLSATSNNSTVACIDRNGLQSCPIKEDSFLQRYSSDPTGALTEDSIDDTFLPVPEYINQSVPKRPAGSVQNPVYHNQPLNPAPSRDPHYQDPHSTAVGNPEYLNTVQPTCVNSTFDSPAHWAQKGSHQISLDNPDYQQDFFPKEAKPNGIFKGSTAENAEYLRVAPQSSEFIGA
experimentDescription: EGFR PROTAC HTRF experiment (total EGFR degradation)
Assay type: cell-based
conditionSummary: read-out: Baf3-DTC DC50; Baf3-DTC, incubated 16 hours, HTRF total EGFR

Example entries and their recorded answers appear below.
CCc1cc(Nc2ncc(Br)c(Nc3ccccc3P(C)(C)=O)n2)c(OC)cc1N1CCN(C(=O)CN2CCC(c3cc4c(cc3F)c(N3CCC(=O)NC3=O)nn4C)C(F)(F)C2)CC1 (centres unmarked) [TC-158]; < 10 nM
CCc1cc(Nc2ncc(Cl)c(Nc3ccccc3C(=O)NC)n2)c(OC)cc1N1CCN(C(=O)CN2CCC(c3ccc4c(N5CCC(=O)NC5=O)nn(C)c4c3)C(F)(F)C2)CC1 (centres unmarked) [Comparative Example 1-1, reference compound]; 10 to 100 nM
CCc1cc(Nc2ncc(Cl)c(Nc3ccccc3C(=O)NC)n2)c(OC)cc1N1CCN(C(=O)CN2CCC(c3cc4c(cc3F)c(N3CCC(=O)NC3=O)nn4C)C(F)(F)C2)CC1 (centres unmarked) [TA-003]; 10 to 100 nM
CCc1cc(Nc2ncc(Br)c(Nc3ccccc3P(C)(C)=O)n2)c(OC)cc1N1CC2(CCN(C(=O)CN3CCC(c4cc5c(cc4F)c(N4CCC(=O)NC4=O)nn5C)C(F)(F)C3)CC2)C1 (centres unmarked) [TC-164]; < 10 nM

In the following, a different compound is considered.
Tell me reported DC50 for CCc1cc(Nc2ncc(Cl)c(Nc3ccc4nccnc4c3P(C)(C)=O)n2)c(OC)cc1N1CCN(C(=O)CN2CCC(c3cc4c(cc3F)c(N3CCC(=O)NC3=O)nn4C)C(F)(F)C2)CC1 (centres unmarked) [TA-007] , tested with EGFR in Baf3-19del-T790M-C797S (Homo sapiens, UniProt P00533, C797S/DEL746-750/T790M). < 10 nM

====

Hi there, I'd appreciate the recorded pIC50 for every entry that follows.
Tested on: A549
experimentDescription: Cell anti-proliferation experiment (CTG)
Assay type: cell-based
conditionSummary: Homo sapiens, A549, 72 h, A549 (wild-type EGFR), class symbol
pIC50: −log10 of the molar value.

Example entries and their recorded answers appear below.
CCc1cc(Nc2ncc(Cl)c(Nc3ccccc3P(C)(C)=O)n2)c(OC)cc1N1CCN(C(=O)CN2CCC(c3cc4c(cc3F)c(N3CCC(=O)NC3=O)nn4C)C(F)(F)C2)CC1 (stereo not drawn); 6.00 to 7.00
CCc1cc(Nc2ncc(Cl)c(Nc3ccccc3P(C)(C)=O)n2)c2c(c1N1CCN(C(=O)CN3CCC(c4cc5c(cc4F)c(N4CCC(=O)NC4=O)nn5C)C(F)(F)C3)CC1)CCO2 (stereo not drawn); < 6.00

In the following, a different compound is considered.
Please look up its pIC50: CCc1cc(Nc2ncc(Cl)c(Nc3ccccc3P(C)(C)=O)n2)c(OC)cc1N1CCN(C(=O)CN2CCC(c3ccc4c(N5CCC(=O)NC5=O)nn(C)c4c3)C(F)(F)C2)CC1 (stereo not drawn) 6.00 to 7.00

====

System: Baf3-19del- T790M -C797S (Baf3-DTC)
experimentDescription: Cell anti-proliferation experiment (CTG)
Assay type: cell-based
conditionSummary: 72 h, number after the class symbol
quantity: log10 IC50 (log10 of the value in nM)
Hi team, quick reminder: these entries are log10 of IC50 (nM).

COc1cc(N2CCC(CN3CCN(c4ccc5c(c4)C(=O)N(C4CCC(=O)NC4=O)C5=O)CC3)CC2)c(-c2cnn(C)c2)cc1Nc1ncc(Br)c(Nc2ccc(C3CC3)cc2P(C)(C)=O)n1 (stereo not drawn) [DZL-1, reference compound]; 1.16
CCc1cc(Nc2ncc(Cl)c(Nc3ccccc3P(C)(C)=O)n2)c(OC)cc1N1CCC2(CC1)CN(C(=O)CN1CCC(c3cc4c(cc3F)c(N3CCC(=O)NC3=O)nn4C)C(F)(F)C1)C2 (stereo not drawn); 1.13
CCc1cc(Nc2ncc(Cl)c(Nc3ccccc3P(C)(C)=O)n2)c(OC)cc1N1CCN(C(=O)CN2CCC(c3cc4c(cc3F)c(N3CCC(=O)NC3=O)nn4C)CC2)CC1; 0.95

For every record below, what is its log10 IC50?
1. CCc1cc(Nc2ncc(Cl)c(Nc3ccccc3P(C)(C)=O)n2)c(OC)cc1N1CCN(C(=O)CN2CCC(c3cc4c(cc3F)c(N3CCC(=O)NC3=O)nn4C)C(F)(F)C2)CC1 (stereo not drawn)
2. CCc1cc(Nc2ncc(Cl)c(Nc3ccccc3P(C)(C)=O)n2)c(OC)cc1N1CCN(C(=O)CN2CCC(c3ccc4c(N5CCC(=O)NC5=O)nn(C)c4c3)C(F)(F)C2)CC1 (stereo not drawn)
3. CCc1cc(Nc2ncc(Cl)c(Nc3ccccc3P(C)(C)=O)n2)c(OC)cc1N1CC2(CCN(C(=O)CN3CCC(c4cc5c(cc4F)c(N4CCC(=O)NC4=O)nn5C)C(F)(F)C3)CC2)C1 (stereo not drawn)

1. 0.61
2. 0.75
3. 2.31

====

testSystem: EGFR in Baf3-19del-T790M-C797S (Homo sapiens, UniProt P00533, C797S/DEL746-750/T790M)
experimentDescription: EGFR PROTAC HTRF experiment (total EGFR degradation)
Format: cell-based
conditionSummary: read-out: Baf3-DTC Dmax
quantity: Dmax

For every record below, what is its Dmax?
1. CCc1cc(Nc2ncc(Cl)c(Nc3ccccc3C(=O)NC)n2)c(OC)cc1N1CCN(C(=O)CN2CCC(c3cc4c(cc3F)c(N3CCC(=O)NC3=O)nn4C)C(F)(F)C2)CC1 (stereo not drawn)
2. CCc1cc(Nc2ncc(Cl)c(Nc3ccccc3C(=O)NC)n2)c(OC)cc1N1CCN(C(=O)CN2CCC(c3ccc4c(N5CCC(=O)NC5=O)nn(C)c4c3)C(F)(F)C2)CC1 (stereo not drawn) [Comparative Example 1-1, reference compound]
3. CCc1cc(Nc2ncc(Cl)c(Nc3ccc4nccnc4c3P(C)(C)=O)n2)c(OC)cc1N1CCN(C(=O)CN2CCC(c3cc4c(cc3F)c(N3CCC(=O)NC3=O)nn4C)C(F)(F)C2)CC1 (stereo not drawn)

1: 70 to 100%; 2: 70 to 100%; 3: 70 to 100%

====

Hi there, I'd appreciate the recorded HL_ for every entry that follows.
experimentDescription: Pharmacokinetic test of CD-1 mice
Assay type: in vivo
conditionSummary: male CD-1 mice, single oral gavage (PO), plasma
Numbers only, in h.

Example entries and their recorded answers appear below.
CCc1cc(Nc2ncc(Br)c(Nc3ccccc3C(=O)NC)n2)c(OC)cc1N1CCN(C(=O)CN2CCC(c3cc4c(cc3F)c(N3CCC(=O)NC3=O)nn4C)C(F)(F)C2)CC1 (stereo not shown); 2.67
CCc1cc(Nc2ncc(Cl)c(Nc3ccccc3C(=O)NC)n2)c(OC)cc1N1CCN(C(=O)CN2CCC(c3ccc4c(N5CCC(=O)NC5=O)nn(C)c4c3)C(F)(F)C2)CC1 (stereo not shown) [Comparative Example 1-1, reference compound]; 2.41
CCc1cc(Nc2ncc(Cl)c(Nc3ccccc3P(C)(C)=O)n2)c(OC)cc1N1CCN(C(=O)CN2CCC(c3cc4c(cc3F)c(N3CCC(=O)NC3=O)nn4C)C(F)(F)C2)CC1 (stereo not shown); 2.28

In the following, a different compound is considered.
Please look up its HL_: CCc1cc(Nc2ncc(Cl)c(Nc3ccccc3C(=O)NC)n2)c(OC)cc1N1CCN(C(=O)CN2CCC(c3cc4c(cc3F)c(N3CCC(=O)NC3=O)nn4C)C(F)(F)C2)CC1 (stereo not shown) 2.45
